Measured values drawn from patent US10654802B2 for this set.

biological target: Nox4 (Homo sapiens, UniProt Q9NPH5); construct: expressed in transfected cells; assay: Inhibition of Nox4-dependent H2O2 production in HEK/Nox4 cells, Amplex Red assay; type: cell-based; conditions: 10 μM final concentration, 1 h, HEK/Nox4 cells; DMSO vehicle = 1.000; n = 3-10; read-out: H2O2 production relative to vehicle control, Mean
Sequence (Q9NPH5 whole entry): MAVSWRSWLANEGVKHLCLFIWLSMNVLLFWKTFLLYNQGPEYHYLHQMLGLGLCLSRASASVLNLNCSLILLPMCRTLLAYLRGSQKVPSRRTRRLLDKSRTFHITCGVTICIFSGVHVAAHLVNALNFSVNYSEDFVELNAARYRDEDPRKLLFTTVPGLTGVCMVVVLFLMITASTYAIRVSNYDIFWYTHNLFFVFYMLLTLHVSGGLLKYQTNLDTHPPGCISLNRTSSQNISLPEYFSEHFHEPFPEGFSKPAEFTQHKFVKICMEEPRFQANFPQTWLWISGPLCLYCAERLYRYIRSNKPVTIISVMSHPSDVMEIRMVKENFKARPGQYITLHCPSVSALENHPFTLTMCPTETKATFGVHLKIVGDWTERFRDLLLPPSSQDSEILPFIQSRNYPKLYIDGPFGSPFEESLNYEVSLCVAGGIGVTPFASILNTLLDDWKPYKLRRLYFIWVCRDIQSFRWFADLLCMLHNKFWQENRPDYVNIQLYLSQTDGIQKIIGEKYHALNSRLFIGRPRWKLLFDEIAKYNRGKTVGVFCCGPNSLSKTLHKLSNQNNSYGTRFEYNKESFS
Sequence (P13498 whole entry partner): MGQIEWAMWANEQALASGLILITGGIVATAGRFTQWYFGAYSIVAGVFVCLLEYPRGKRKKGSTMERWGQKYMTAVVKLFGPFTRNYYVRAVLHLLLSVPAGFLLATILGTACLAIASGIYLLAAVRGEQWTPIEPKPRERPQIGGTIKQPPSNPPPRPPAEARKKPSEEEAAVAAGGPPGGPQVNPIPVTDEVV
MEASURED_QUANTITY: remaining activity at 10 µM (%)

- MOLECULE: "O=C(NCCN1CCc2ccccc21)N1CCCC1 [UANOX021]"
  MEASURED_QUANTITY: "remaining activity at 10 µM"
  READING: 79.1
- MOLECULE: "CC(CNS(=O)(=O)N1CCCC1)N1CCc2ccccc21 (stereo not drawn) [UANOX008]"
  MEASURED_QUANTITY: "remaining activity at 10 µM"
  READING: 67.8
- MOLECULE: "CC(CNC(=O)c1csc(-c2ccc(C(F)(F)F)cc2)n1)N1CCc2ccccc21 (stereo not drawn) [UANOX056]"
  MEASURED_QUANTITY: "remaining activity at 10 µM"
  READING: 83.4
